Source: a melting point compilation (Tetko et al.; mined from patent text by program, amines drawn as free bases though some values may be those of a salt)

measured.parameter: melting point

Worked examples, 2 molecules total:
molecule: CCNC(=O)c1c([Si](C)(C)C)ccc(I)c1Cl
result: 128 to 130 °C
//
molecule: Cn1cnc(COc2nn3c(-c4ccccc4F)nnc3cc2-c2ccsc2)n1
result: 216 to 218 °C

Lookup: melting point lookup needed for `CN(C)C=Nc1nc(Cl)c2[nH]cnc2n1` , thanks.
Found: 300 °C

Lookup: What measured melting point goes with `CC(c1ccc(Oc2ccc(N)cc2)cc1)(c1ccc(Oc2ccc(N)cc2)cc1)c1ccc(Oc2ccc(N)cc2)cc1` ?
Found: 220 to 221 °C

----------
Below is a list of entries, each paired with its recorded melting point value.

Below: 4 compounds and their reported melting point.
compound: O=C(O)CCN(C(=O)Cl)c1cccc(Cl)c1
result: 106 °C

compound: O=C(NCCCc1ccncc1)N(CCC12CC3CC(CC(C3)C1)C2)CC1CCCC1
result: 155 to 158 °C

compound: COc1nc(OC)c(C(C)C)c(C(=O)c2cc(C)cc(C=CC#N)c2)n1
result: 144 to 145 °C

compound: O=C(O)CC/C=C/CC(NC(=O)c1ccccc1)C(=O)O (stereo not given)
result: 138 °C

API: the following record is the query input.
Lookup: Fill in: melting point of COc1ncc(-c2nn(C(C)c3oc4ccccc4c(=O)c3-c3cccc(F)c3)c3ncnc(N)c23)cn1 (stereo not given) is ___
Found: 224 to 227 °C
